Test: Phase 1 single ascending dose (SAD) trial, plasma pharmacokinetics (Part 1)
Details: male, human, in vivo, po, 90 mg, Cmax, human plasma; Regimen G: 90 mg TQS-168 SDD oral suspension, fasted, single dose
Quantity Name: Cmax (nM)
One number for each entry, in nM.

*Q* // query Cmax value for entry CC(C)(C)c1ccc(-c2nc3ccccc3[nH]2)cc1 [TQS-168, 2-(4-tert-butylphenyl)-1H-benzimidazole]
*A* 440

###

Assay: Plasma concentrations of TQS-168 and TQS-621 after single oral dose 50 mg/kg in mice, three formulations
Format: in vivo
Details: male, C57BL/6, mouse, plasma, po, 50 mg/kg, mice plasma, TQS-168 50 mg/kg p.o., Group 3 (suspension, Labrafil/Masine/Miglyol/water), individual mouse; read-out: Cmax
Method: In a second experiment, mice were administered 50 mg/kg TQS-168 by oral gavage. For Group 1, TQS-168 was prepared at a concentration of 5.0 mg/mL in a suspension with […] in PBS. For Group 2, TQS-168 was prepared at a concentration of 5.0 mg/mL as a solution in 10 polyethylene glycol (PEG) 400|30 Kleptose (Roquete)|60% water. […] Plasma concentrations of TQS-168 and TQS-621 were measured overtime.
Quantity Name: Cmax
Note: state the figure and append the unit.

*Q* Field request: Cmax | item: CC(C)(C)c1ccc(-c2nc3ccccc3[nH]2)cc1 [TQS-168, 2-(4-tert-butylphenyl)-1H-benzimidazole]
*A* 611 ng/mL

Lab note: next compound to report on.
*Q* Which Cmax value belongs to CC(C)(C)c1ccc(-c2nc3cc(O)ccc3[nH]2)cc1 [TQS-621] ?
*A* 98.9 ng/mL

###

Experiment: clinical
Conditions: male, human, in vivo, po, 180 mg, Tmax
Quantity Name: Tmax (h)
Answers are plain numbers, in h.

*Q* Give the measured Tmax of CC(C)(C)c1ccc(-c2nc3cc(O)ccc3[nH]2)cc1 .
*A* 1.5

###

Record form. Attribute: Tmax. Fill in for each entry.
Experiment: Plasma concentrations of TQS-168 and TQS-621 after single oral dose 50 mg/kg in mice, three formulations
Assay type: in vivo
Conditions: male, C57BL/6, mouse, plasma, po, 50 mg/kg, mice plasma, TQS-168 50 mg/kg p.o., Group 2 (solution, PEG400/Kleptose/water), individual mouse; read-out: tmax
Method: In a second experiment, mice were administered 50 mg/kg TQS-168 by oral gavage. For Group 1, TQS-168 was prepared at a concentration of 5.0 mg/mL in a suspension with […] in PBS. For Group 2, TQS-168 was prepared at a concentration of 5.0 mg/mL as a solution in 10 polyethylene glycol (PEG) 400|30 Kleptose (Roquete)|60% water. […] Plasma concentrations of TQS-168 and TQS-621 were measured overtime.

*Q* Give its Tmax value. Item: CC(C)(C)c1ccc(-c2nc3ccccc3[nH]2)cc1 [TQS-168, 2-(4-tert-butylphenyl)-1H-benzimidazole]
*A* 0.5 h

# ---- query compound ----
*Q* Sample CC(C)(C)c1ccc(-c2nc3cc(O)ccc3[nH]2)cc1 [TQS-621] — what was its Tmax?
*A* 2 h

###

Test: Phase 1 single ascending dose (SAD) trial, plasma pharmacokinetics (Part 1)
Details: male, human, in vivo, po, 180 mg, Cmax, human plasma; Regimen D: 180 mg TQS-168 SDD oral suspension, fasted, single dose
Quantity Name: Cmax (nM)
Numbers only, in nM.

*Q* # input molecule: CC(C)(C)c1ccc(-c2nc3ccccc3[nH]2)cc1 ; wanted: its Cmax
*A* 870

Every entry's value here was drawn from patent US20250281462A1.
